- target of assay: T1, recombinant biotinylated human PAR2 extracellular domain (residues 1-75), N-terminal AviTag, C-terminal Flag … (human, UniProt P55085 26-75, biotin on the AviTag (enzymatic biotinylation))
- T1 construct: also called Bio-human-PAR2 ECD; human PAR2 ECD; not shown: N-terminal AviTag (Avidity LLC); C-terminal Flag and poly Histidine tags
- T1 sequence (P55085 26-75): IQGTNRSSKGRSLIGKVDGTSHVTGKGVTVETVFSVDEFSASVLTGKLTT
- protocol text: Biacore SPR 25 C, pH 6.0
measured quantity: koff (s⁻¹)
Write it as a number; the unit s⁻¹ goes unstated.

Exercise: Would you kindly share the measured koff for PaB670120 Fab (Fab, V domains shown, Fab; also called ZZ1RUC-C11) VH: EVQLLESGGGLVQPGGSLRLSCAASGFTFSSYAMNWVRQAPGKGLEWVSTISYHGHHISYADSHHHRFTISRDNSKNTLYLQMNSLRAEDTAVYYCARINHDPMDVWGQGTLVTVSS VL: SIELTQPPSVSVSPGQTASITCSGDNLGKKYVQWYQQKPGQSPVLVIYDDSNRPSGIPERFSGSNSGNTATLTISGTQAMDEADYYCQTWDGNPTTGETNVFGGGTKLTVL ?
Key: 0.021
